# Target or system: Tyrosyl-tRNA synthetase, putative (Trypanosoma cruzi (strain CL Brener))
# Protocol summary: Trypanosoma cruzi tyrosyl tRNA synthetase (TcYRS) SOP
# Type: functional
# Parameters: scale not given: direction of the effect not stated beside the values
# Experimental context: 30 µM
Observation type: Percent Effect (%)
Numbers only; they are read as %.

Recorded results for 5 molecules are shown here.
Molecule | Target or system | Percent Effect (%)
Cc1nccc([C@@H]2C[C@@H]3CCN(S(C)(=O)=O)C[C@H]3O2)n1 | Tyrosyl-tRNA synthetase, putative (Trypanosoma cruzi (strain CL Brener)) | 13.6
Cc1nc(C)n(C2CCCN(C(=O)c3csc(C(C)C)n3)C2)n1 (stereo unspecified) | Tyrosyl-tRNA synthetase, putative (Trypanosoma cruzi (strain CL Brener)) | 28.4
CNC(=O)Nc1cc(-c2ccc(Br)cc2)nn1CCO | Tyrosyl-tRNA synthetase, putative (Trypanosoma cruzi (strain CL Brener)) | 2.6
O=C(CCCc1cn[nH]c1)N1C[C@@H](CN2CCOCC2)[C@@H](CO)C1 | Tyrosyl-tRNA synthetase, putative (Trypanosoma cruzi (strain CL Brener)) | -5
CCN(CC)C1CCN(C(=O)NCc2c(C)noc2C)CC1 | Tyrosyl-tRNA synthetase, putative (Trypanosoma cruzi (strain CL Brener)) | 13.6

Proceeding to the next molecule to report its Percent Effect.
Returns the measured Percent Effect for the input molecule. Input: `CC(C)NC(=O)Cn1cc(-c2ccccc2)cn1`
10.1

###

# Target or system: Ubiquitin-activating enzyme e1, putative (Leishmania donovani (strain BPK282A1)) (UniProt E9BSI1)
# Sequence (whole entry): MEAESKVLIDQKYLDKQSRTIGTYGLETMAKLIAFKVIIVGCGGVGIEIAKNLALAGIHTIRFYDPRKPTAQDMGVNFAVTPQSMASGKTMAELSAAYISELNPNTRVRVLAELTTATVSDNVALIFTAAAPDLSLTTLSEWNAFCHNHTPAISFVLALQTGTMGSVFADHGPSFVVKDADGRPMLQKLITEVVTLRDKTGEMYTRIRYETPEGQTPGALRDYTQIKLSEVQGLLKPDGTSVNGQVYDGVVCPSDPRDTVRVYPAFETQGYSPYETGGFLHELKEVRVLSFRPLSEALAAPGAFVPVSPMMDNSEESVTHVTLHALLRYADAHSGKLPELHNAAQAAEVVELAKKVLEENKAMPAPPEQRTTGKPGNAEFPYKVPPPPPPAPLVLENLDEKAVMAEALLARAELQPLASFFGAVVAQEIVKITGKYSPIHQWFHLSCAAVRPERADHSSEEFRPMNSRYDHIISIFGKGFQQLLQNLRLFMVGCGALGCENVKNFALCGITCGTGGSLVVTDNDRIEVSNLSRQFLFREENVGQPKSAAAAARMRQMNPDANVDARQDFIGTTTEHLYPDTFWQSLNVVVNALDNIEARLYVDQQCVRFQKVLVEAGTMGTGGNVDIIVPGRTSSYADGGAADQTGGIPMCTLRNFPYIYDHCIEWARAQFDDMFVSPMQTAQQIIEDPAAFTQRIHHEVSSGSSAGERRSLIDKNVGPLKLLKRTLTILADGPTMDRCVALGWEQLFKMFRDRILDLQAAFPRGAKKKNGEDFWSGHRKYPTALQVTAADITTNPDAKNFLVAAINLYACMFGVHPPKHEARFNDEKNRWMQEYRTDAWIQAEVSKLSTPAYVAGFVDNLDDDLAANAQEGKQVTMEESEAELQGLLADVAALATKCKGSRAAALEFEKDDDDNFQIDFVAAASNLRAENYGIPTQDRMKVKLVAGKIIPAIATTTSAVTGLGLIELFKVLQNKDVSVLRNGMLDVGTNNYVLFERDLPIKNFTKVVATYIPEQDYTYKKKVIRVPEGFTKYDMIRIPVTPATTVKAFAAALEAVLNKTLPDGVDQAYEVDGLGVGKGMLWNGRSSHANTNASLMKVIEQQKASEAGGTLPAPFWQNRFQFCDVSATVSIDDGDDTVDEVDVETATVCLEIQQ
# Protocol summary: Leishmania donovani Ubiquitin Activating Enzyme (LdE1)
# Type: functional
# Design: scale not given: direction of the effect not stated beside the values
# Experimental context: 30 µM
Measured potencies and affinities stand elsewhere.
The following compounds are shown together with reported Percent Effect values.
Numbers only; they are read as %.

Recorded results for 5 compounds are shown here.
Compound | Experimental value
CCOc1ccccc1C(CC(=O)Nc1nc(C)cs1)NC(C)=O (centres undefined) | 5.26
Cc1ccoc1C(=O)N1C[C@H]2CCC[C@@]2(COCc2ccncc2)C1 | 18.2
CCc1noc(C(C)N2CCC(NC(=O)c3ccc(C)s3)CC2)n1 (centres undefined) | 7.79
OCCC1CN(C2CCC2)CCN1C1CCCC1 (centres undefined) | -1.39
COCC1CN(C(=O)c2ccnnc2)Cc2c1cnn2C (centres undefined) | -5.33

Returns the measured Percent Effect for the input compound. Input: O=C(CCc1cccs1)N1CCCCC1Cn1cccn1 (centres undefined)
10.4

Returns the measured Percent Effect for the input compound. Input: `CSCC[C@H](N)C(=O)NCc1cc2n(n1)CCCN(C1CCCCC1)C2`
12.5
